FYI, the data here is from patent US6509153B1.

# assay.remarks: cell viability test (MTT) used to calculate the IC80 concentration
# Type: cell-based
# conditions.used: human; HepG2 cells, exposure time 18 h; read-out: Concentration (corresponds to an IC80, MTT)
Where a name gives a salt, the structure may show the parent alone.
metric.name: IC80 at 18 h

CN(Cc1cnc2nc(N)nc(N)c2n1)c1ccc(C(=O)N[C@@H](CCC(=O)O)C(=O)O)cc1 [Methotrexate] = 0.5 µM
CC[C@]1(O)C[C@@H]2CN(CCc3c([nH]c4ccccc34)[C@@](C(=O)OC)(c3cc4c(cc3OC)N(C)[C@H]3[C@@](O)(C(=O)OC)[C@H](OC(C)=O)[C@]5(CC)C=CCN6CC[C@]43[C@@H]65)C2)C1 [Vinblastine Sulfate] = 30 µM
CC(=O)Nc1ccc(O)cc1 [Paracetamol] = 1000 µM
CC(=O)Oc1ccccc1C(=O)O [Aspirin] = 2000 µM
Clc1cccc(Cl)c1N=C1NCCN1 [Clonidine] = 150 µM

Read the next record carefully.
Requested field: IC80 at 18 h. Item: CC(C)[C@@H]1NC(=O)[C@H](C)OC(=O)[C@@H](C(C)C)NC(=O)[C@@H](C(C)C)OC(=O)[C@H](C(C)C)NC(=O)[C@H](C)OC(=O)[C@@H](C(C)C)NC(=O)[C@@H](C(C)C)OC(=O)[C@H](C(C)C)NC(=O)[C@H](C)OC(=O)[C@@H](C(C)C)NC(=O)[C@@H](C(C)C)OC1=O [Valinomycin]
0.015 µM
